Tested on: complementary DNA
Experiment: Tm study of 10mer oligomeric compounds duplexed to DNA
Type: binding
Conditions: duplex with complementary DNA; compared to unmodified 10mer A01; 150 mM NaCl, 10 mM phosphate, 0.1 mM EDTA, pH 7
EXPERIMENTAL READOUT: ΔTm/mod (° C.) vs DNA

Give the measured ΔTm/mod (° C.) vs DNA of AACTbGTCACG [A04] .
+0.1 °C

Give the measured ΔTm/mod (° C.) vs DNA of AaAaCaTaGaTdCaAaCaGa [A12] .
−2.8 °C

Give the measured ΔTm/mod (° C.) vs DNA of AaAaCaTbGaTbCaAaCaGa [A14] .
+1.1 °C

Give the measured ΔTm/mod (° C.) vs DNA of AACTdGTCACG (AACT_{d}GTCACG; as printed in the source, key not given here) [A05, 10mer phosphodiester DNA with one tricyclic nucleoside of subscript d] .
+0.4 °C

Give the measured ΔTm/mod (° C.) vs DNA of AACTGTdCACG (AACTGT_{d}CACG; as printed in the source, key not given here) [A03, 10mer phosphodiester DNA with one tricyclic nucleoside of subscript d, subscripts drawn in drawing 18] .
+0.5 °C

Give the measured ΔTm/mod (° C.) vs DNA of AACTGTbCACG [A02] .
−0.9 °C

Give the measured ΔTm/mod (° C.) vs DNA of AaAaCaTcGaTcCaAaCaGa [A15] .
+1.1 °C

Give the measured ΔTm/mod (° C.) vs DNA of AaAaCaTdGaTdCaAaCaGa [A16] .
+1.1 °C

Give the measured ΔTm/mod (° C.) vs DNA of AaAaCaTdGaTaCaAaCaGa [A13] .
−3.8 °C

Give the measured ΔTm/mod (° C.) vs DNA of AACTGTCACG (unmodified DNA) [A01, unmodified 10mer DNA oligonucleotide, phosphodiester linkages, reference compound] .
0 °C

Give the measured ΔTm/mod (° C.) vs DNA of AaAaCaTaGaTaCaAaCaGa [A11, reference compound] .
+1.3 °C

----------
Can you tell me ΔTm/mod (° C.) vs RNA for the items I'm about to list?
System: complementary RNA
Test: Tm study of 10mer oligomeric compounds duplexed to RNA
Type: binding
Settings: duplex with complementary RNA; compared to unmodified 10mer A01; 150 mM NaCl, 10 mM phosphate, 0.1 mM EDTA, pH 7

Give the measured ΔTm/mod (° C.) vs RNA of AACTbGTCACG [A04] .
+2.4 °C

Give the measured ΔTm/mod (° C.) vs RNA of AaAaCaTbGaTbCaAaCaGa [A14] .
+2.0 °C

Give the measured ΔTm/mod (° C.) vs RNA of AaAaCaTdGaTaCaAaCaGa [A13] .
−2.6 °C

Give the measured ΔTm/mod (° C.) vs RNA of AaAaCaTdGaTdCaAaCaGa [A16] .
+2.3 °C

Give the measured ΔTm/mod (° C.) vs RNA of AACTGTCACG (unmodified DNA) [A01, unmodified 10mer DNA oligonucleotide, phosphodiester linkages, reference compound] .
0 °C

Give the measured ΔTm/mod (° C.) vs RNA of AACTGTdCACG (AACTGT_{d}CACG; as printed in the source, key not given here) [A03, 10mer phosphodiester DNA with one tricyclic nucleoside of subscript d, subscripts drawn in drawing 18] .
+2.1 °C

Give the measured ΔTm/mod (° C.) vs RNA of AaAaCaTaGaTdCaAaCaGa [A12] .
−0.6 °C

Give the measured ΔTm/mod (° C.) vs RNA of AACTGTbCACG [A02] .
+0.4 °C

Give the measured ΔTm/mod (° C.) vs RNA of AaAaCaTcGaTcCaAaCaGa [A15] .
+2.0 °C

Give the measured ΔTm/mod (° C.) vs RNA of AaAaCaTaGaTaCaAaCaGa [A11, reference compound] .
+2.1 °C

Give the measured ΔTm/mod (° C.) vs RNA of AACTdGTCACG (AACT_{d}GTCACG; as printed in the source, key not given here) [A05, 10mer phosphodiester DNA with one tricyclic nucleoside of subscript d] .
+2.4 °C
